System: TOV-112D
protocol: Cell proliferation assay
Format: cell-based
protocol conditions: Homo sapiens, TOV112D; Table 7b; TOV-112D; cells printed in nM; read-out: Cell Proliferation Assay (EC50)
Decision: EC50 beneath 300 nM gives y; EC50 meeting or exceeding 300 nM gives n.

{"molecule": "Cc1ccccc1C(=O)Nc1nc(-c2ccccc2O)nn1-c1ccc(N2CCNCC2)cc1", "group label": "y"}
{"molecule": "NCc1ccc(C(=O)Nc2nc(-c3ccccc3O)nn2-c2ccc(OC(F)(F)F)cc2)cc1 [Compound 10x]", "group label": "y"}
{"molecule": "Cc1ccccc1C(=O)Nc1nc(NC(=O)c2cccc(CN3CCOCC3)c2)nn1-c1ccc(OC(F)(F)F)cc1 [Compound 11x]", "group label": "n"}
{"molecule": "Cc1ccccc1C(=O)Nc1nc(NC(=O)c2ccc(CN)cc2)nn1-c1ccc(OC(F)(F)F)cc1", "group label": "n"}
{"molecule": "CCCCCCC(=O)NCc1ccc(C(=O)Nc2nc(-c3ccccc3O)nn2-c2ccc(OC(F)(F)F)cc2)cc1", "group label": "y"}
{"molecule": "CCCCCCC(=O)NCc1ccc(C(=O)Nc2nc(-c3ncccc3C)nn2-c2cccc(F)c2)cc1", "group label": "y"}
{"molecule": "Cc1ccccc1C(=O)Nc1nc(NC(=O)c2ccc(CN3CCN(C)CC3)cc2)nn1-c1ccc(OC(F)(F)F)cc1 [Compound 14x]", "group label": "n"}

* * *

This section presents compounds with their documented EC50 values.
Test system: HCT 116
protocol: Cell proliferation assay
Assay type: cell-based
protocol conditions: Homo sapiens; Table 7b; HCT-116; cells printed in nM; read-out: Cell Proliferation Assay (EC50)
endpoint label: EC50 (nM)

{"compound": "Cc1ccccc1C(=O)Nc1nc(NC(=O)c2ccc(CN3CCN(C)CC3)cc2)nn1-c1ccc(OC(F)(F)F)cc1 [Compound 14x]", "endpoint label": "EC50", "unit of measurement": "nM", "reported": 412}
{"compound": "Cc1ccccc1C(=O)Nc1nc(-c2ccccc2O)nn1-c1ccc(N2CCNCC2)cc1 [Compound 7x]", "endpoint label": "EC50", "unit of measurement": "nM", "reported": 406}
{"compound": "Cc1ccccc1C(=O)Nc1nc(NC(=O)c2ccc(CN)cc2)nn1-c1ccc(OC(F)(F)F)cc1 [Compound 1x]", "endpoint label": "EC50", "unit of measurement": "nM", "reported": 972}
{"compound": "Cc1ccccc1C(=O)Nc1nc(NC(=O)c2ccc(CNC(C)C)cc2)nn1-c1ccc(OC(F)(F)F)cc1 [Compound 12x]", "endpoint label": "EC50", "unit of measurement": "nM", "reported": 755}

* * *

System: OAW42
protocol: Cell proliferation assay
Assay type: cell-based
protocol conditions: Homo sapiens, OAW-42; Table 7a; Ovarian (OAW42)

{"smiles notation": "Cc1ccccc1C(=O)Nc1nc(NC(=O)c2ccccc2C)n(-c2ccc(OC(F)(F)F)cc2)n1", "tested system": "OAW42", "EC50": "166 nM"}

* * *

Test system: OVCAR-3
protocol: Cell proliferation assay
Type: cell-based
protocol conditions: Homo sapiens; Ovarian OVCAR-3; loss of p16 (mutant p53)
endpoint label: IC50 (µM)

{"smiles notation": "Cc1ccccc1C(=O)Nc1nc(NC(=O)c2ccccc2C)n(-c2ccc(OC(F)(F)F)cc2)n1", "endpoint label": "IC50", "reported": 0.14}
